measured-target: human M2 receptor (Homo sapiens, UniProt P08172)
Sequence (P08172 whole entry): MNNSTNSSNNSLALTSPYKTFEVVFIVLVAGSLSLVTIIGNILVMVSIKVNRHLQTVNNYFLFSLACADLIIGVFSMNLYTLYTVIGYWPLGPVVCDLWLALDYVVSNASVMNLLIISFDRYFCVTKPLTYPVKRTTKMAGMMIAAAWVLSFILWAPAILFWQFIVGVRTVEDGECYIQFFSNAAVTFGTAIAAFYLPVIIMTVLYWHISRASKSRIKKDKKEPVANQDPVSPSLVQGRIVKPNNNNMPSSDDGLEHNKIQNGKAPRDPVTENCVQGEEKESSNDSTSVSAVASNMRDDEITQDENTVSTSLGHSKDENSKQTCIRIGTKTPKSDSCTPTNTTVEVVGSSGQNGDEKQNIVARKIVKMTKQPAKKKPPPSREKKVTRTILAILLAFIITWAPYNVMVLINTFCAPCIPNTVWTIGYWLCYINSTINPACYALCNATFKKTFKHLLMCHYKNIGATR
assay-method-text: Functional M2-GIRK1/4 activation test: allosteric potency (EC50) and efficiency
condition-label: Receptor activity EC50, CHO-DUKX-M2-GIRK cells; acetylcholine at EC20; in some cases mean of two or more determinations
measure: log10 EC50 (log10 of the value in nM)

compound: O=C(N[C@H](C1CC1)C(F)(F)F)c1cn(-c2ncc(F)cc2F)c2nc(N3CC4CC4(O)C3)ccc2c1=O (single isomer, unassigned) [Example 39]
numeric-value: 1.71
//
compound: CC1C(O)C2(CC2)C(=O)N1c1ccc2c(=O)c(C(=O)N[C@@H](C3CC3)C(F)(F)F)cn(-c3ncc(F)cc3F)c2n1 (stereo partly shown)
numeric-value: 2.18
//
compound: O=C(N[C@H](C1CC1)C(F)(F)F)c1cn(-c2ncc(F)cc2F)c2nc(N3C[C@@H](O)CC3=O)ccc2c1=O
numeric-value: 1.85
//
compound: O=C(N[C@@H](C1CC1)C(F)(F)F)c1cn(-c2ncc(F)cc2F)c2nc(N3CCCN(CCO)C3=O)ccc2c1=O
numeric-value: 2.38
//
compound: O=C(N[C@@H](C1CC1)C(F)(F)F)c1cn(-c2ncc(F)cc2F)c2nc(N3C[C@@H](O)CC3=O)ccc2c1=O
numeric-value: 1.94
//
compound: O=C(Nc1c(Cl)cccc1Cl)c1cn(-c2ncc(F)cc2F)c2nc(N3C[C@@H](O)[C@@H](O)C3)ccc2c1=O
numeric-value: 2.49
//
compound: CC(NC(=O)c1cn(-c2ncc(F)cc2F)c2nc(N3C[C@@H](O)[C@H](O)C3)ccc2c1=O)C(F)(F)C(F)(F)F (single isomer, unassigned) [Example 89]
numeric-value: 2.44
//
compound: CC[C@H](NC(=O)c1cn(-c2ncc(F)cc2F)c2nc(N3CC(O)C(C)C3=O)ccc2c1=O)C(F)(F)F (single isomer, unassigned) [Example 111]
numeric-value: 2.00
//
compound: O=C(NC(c1ccccc1Cl)C(F)(F)F)c1cn(-c2ncc(F)cc2F)c2nc(N3CCNC3=O)ccc2c1=O (single isomer, unassigned) [Example 148]
numeric-value: 1.82
//
compound: CC(C)(C)[C@H](NC(=O)c1cn(-c2ncc(F)cc2F)c2nc(N3C[C@@H](O)CC3=O)ccc2c1=O)C(F)(F)F
numeric-value: 1.36
//
compound: CCC(NC(=O)c1cn(-c2ncc(F)cc2F)c2nc(N3C[C@@H](O)CC3=O)ccc2c1=O)C(F)(F)C(F)(F)F (single isomer, unassigned) [Example 93]
numeric-value: 1.15
//
compound: O=C(NC(C(F)(F)F)C(F)(F)F)c1cn(-c2ncc(F)cc2F)c2nc(N3C[C@@H](O)[C@@H](O)C3)ccc2c1=O
numeric-value: 2.04
//
compound: CC[C@H](NC(=O)c1cn(-c2ncc(F)cc2F)c2nc(N3CC(O)C3)ccc2c1=O)C(F)(F)F
numeric-value: 2.50
//
compound: O=C(NC(c1ccccc1Cl)C(F)(F)F)c1cn(-c2ncc(F)cc2F)c2nc(N3C[C@@H](O)CC3=O)ccc2c1=O (mixture of isomers) [Example 4]
numeric-value: 1.15
//
compound: CC(C)(C)[C@H](NC(=O)c1cn(-c2ncc(F)cc2F)c2nc(N3C[C@@H](O)[C@H](O)C3)ccc2c1=O)C(F)(F)F
numeric-value: 1.58
//
compound: CC[C@H](NC(=O)c1cn(-c2ncc(F)cc2F)c2nc(N3CC(O)C(C)C3=O)ccc2c1=O)C(F)(F)F (single isomer, unassigned) [Example 109]
numeric-value: 2.13
//
compound: CC[C@H](NC(=O)c1cn(-c2ncc(F)cc2F)c2nc(N3CC(F)C3)ccc2c1=O)C(F)(F)F
numeric-value: 2.51
//
compound: CC(C)(NC(=O)c1cn(-c2ncc(F)cc2F)c2nc(N3CCC(O)(CO)CC3)ccc2c1=O)C(F)(F)C(F)(F)F
numeric-value: 1.92
//
compound: O=C(NC(C(F)(F)F)C(F)(F)F)c1cn(-c2ncc(F)cc2F)c2nc(N3CCC(CO)(CO)CC3)ccc2c1=O
numeric-value: 2.04
//
compound: CC1(NC(=O)c2cn(-c3ncc(F)cc3F)c3nc(N4CCNC4=O)ccc3c2=O)CC(F)(F)C1
numeric-value: 3.49
//
compound: O=C(N[C@H](C1CC1)C(F)(F)F)c1cn(-c2ncccc2F)c2nc(N3C[C@@H](O)CC3=O)ccc2c1=O
numeric-value: 2.36
//
compound: CC1C(O)C2(CC2)C(=O)N1c1ccc2c(=O)c(C(=O)N[C@@H](C)C(F)(F)F)cn(-c3ncc(F)cc3F)c2n1 (stereo partly shown)
numeric-value: 2.53
//
compound: O=C(NC12CC(C1)C2)c1cn(-c2ncc(F)cc2F)c2nc(N3C[C@@H](O)CC3=O)ccc2c1=O
numeric-value: 2.77
//
compound: O=C(N[C@H](C1CC1)C(F)(F)F)c1cn(-c2ncc(F)cc2F)c2nc(N3CC4CC4(O)C3)ccc2c1=O (mixture of isomers) [Example 37]
numeric-value: 1.32
//
compound: O=C(Nc1c(Cl)cccc1Cl)c1cn(-c2ncc(F)cc2F)c2nc(N3C[C@@H](O)CC3=O)ccc2c1=O
numeric-value: 1.68
